IC50 values for UniProt:P21396 compiled from several publications are listed below.
Dear colleague, please return just the value in µM, with no unit written.

Case CCN(CC)C(=O)/C=C/C=C/c1ccc2c(c1)OCO2 , UniProt:P21396, IC50 recorded as 3.82

Case NC(=O)Cc1cc(=O)oc2cc(OCc3ccccc3)ccc12 , UniProt:P21396, IC50 recorded as 8

Case CCCCCS(=O)(=O)Oc1ccc2c(C)c(C)c(=O)oc2c1 , UniProt:P21396, IC50 recorded as 0.016

Case Cc1nnc2c(c1Cc1ccccc1)C(=O)c1ccccc1-2 , UniProt:P21396, IC50 recorded as 100

###

pIC50 values for Amine oxidase [flavin-containing] A (Rattus norvegicus, UniProt P21396) compiled from several publications are listed below.
Quick note: pIC50 means taking -log10 of the concentration in moles per liter.

compound Cn1c(N2N=C(c3ccc(Cl)cc3)CC2c2cccs2)nc2ccccc2c1=O (stereo not given) , pIC50 observed: 3.38

compound COc1cc(OC2CCCCC2=O)cc2oc(=O)cc(C)c12 (stereo not given) , pIC50 observed: 4.67

compound C[C@@H](C(N)=O)N1CCc2cc(OCc3cccc(F)c3)ccc2C1 , pIC50 observed: 4.35

compound O=C(NCCN1CCOCC1)c1cncc(Br)c1 , pIC50 observed: 4.59

compound O=C1c2ccccc2-c2nnc3c(c21)-c1ccccc1CC3 , pIC50 observed: 4.30

compound COc1cc(C2CC(c3ccccc3O)=NN2C(=S)Nc2ccccc2)ccc1O (stereo not given) , pIC50 observed: 4.40

###

IC50 values for Amine oxidase [flavin-containing] A (Rattus norvegicus, UniProt P21396) compiled from several publications are listed below.

compound O=C(Nc1cc2cc[nH]c2cn1)c1ccc(F)c(Cl)c1 , IC50 observed: > 10 µM

compound O=C(c1ccccc1)c1cc2c(nn1)-c1ccccc1C2=O , IC50 observed: > 50 µM

compound Cc1ccc(COc2ccc(-c3nnn(CCC#N)n3)cc2)cc1 , IC50 observed: > 100 µM

###

IC50 values for Amine oxidase [flavin-containing] A (Rattus norvegicus) compiled from several publications are listed below.
Experimental system: Amine oxidase [flavin-containing] A (Rattus norvegicus)
Sequence (P21396 whole entry): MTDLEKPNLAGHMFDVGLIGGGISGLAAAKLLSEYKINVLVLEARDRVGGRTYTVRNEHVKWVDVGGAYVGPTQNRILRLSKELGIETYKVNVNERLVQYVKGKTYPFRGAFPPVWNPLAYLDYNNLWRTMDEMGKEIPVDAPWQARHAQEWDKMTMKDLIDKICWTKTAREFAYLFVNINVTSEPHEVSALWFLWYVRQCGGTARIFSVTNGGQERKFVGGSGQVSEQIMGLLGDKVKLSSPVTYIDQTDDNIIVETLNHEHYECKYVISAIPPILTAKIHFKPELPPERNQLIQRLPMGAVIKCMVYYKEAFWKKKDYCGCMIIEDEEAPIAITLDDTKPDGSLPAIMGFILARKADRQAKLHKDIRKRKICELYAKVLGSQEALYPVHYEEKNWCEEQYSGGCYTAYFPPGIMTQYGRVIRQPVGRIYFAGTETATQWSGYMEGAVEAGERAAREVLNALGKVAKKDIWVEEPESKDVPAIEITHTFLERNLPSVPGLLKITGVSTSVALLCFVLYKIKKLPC

compound CCOC(=O)c1c(-c2ccccc2)nnc2c1C(=O)c1ccccc1-2 , IC50 observed: > 50 µM

compound CC(=O)c1ccc(-c2cc3c(nn2)-c2ccccc2C3=O)cc1 , IC50 observed: > 10 µM

compound NC(=O)[C@H](CO)Nc1cc(=O)oc2cc(OCc3cccc(Cl)c3)ccc12 , IC50 observed: > 100 µM

compound O=c1cc(CNCc2ccccc2)c2ccc(OCc3cccc(Cl)c3)cc2o1 , IC50 observed: > 100 µM

compound O=C1c2ccccc2-c2nnc(-c3ccccc3)c(Cc3ccccc3)c21 , IC50 observed: > 10 µM

compound CN(Cc1ccccc1)Cc1cc(=O)oc2cc(OCc3cccc(Cl)c3)ccc12 , IC50 observed: > 100 µM

compound O=C1c2ccccc2-c2nnc(-c3ccco3)cc21 , IC50 observed: > 50 µM

compound Cc1ccccc1COc1ccc(-c2nnn(CCO)n2)cc1 , IC50 observed: > 100 µM

compound N#CCCn1nnc(-c2ccc(OCc3ccccc3Cl)cc2)n1 , IC50 observed: > 100 µM

compound OCCn1nnc(-c2ccc(OCc3ccc(F)cc3)cc2)n1 , IC50 observed: > 100 µM

compound COc1ccc2c(c1)-c1nnc(C)cc1C2=O , IC50 observed: > 1 µM

compound O=C1c2ccccc2-c2nnc(-c3cccc(Cl)c3)cc21 , IC50 observed: > 5 µM

compound O=C1c2ccccc2-c2nnc(-c3cccnc3)cc21 , IC50 observed: > 25 µM
